target: Env of HIV-1 strain YU2.DG (HIV-1)
assayMethodText: cell-based or functional assay
List of neutralization IC50 values.
Give just the number in µg/mL; leave the unit off.

Consider the worked cases shown below.
>>> measuredresult("8ANC3484 (antibody, V domains shown) VH: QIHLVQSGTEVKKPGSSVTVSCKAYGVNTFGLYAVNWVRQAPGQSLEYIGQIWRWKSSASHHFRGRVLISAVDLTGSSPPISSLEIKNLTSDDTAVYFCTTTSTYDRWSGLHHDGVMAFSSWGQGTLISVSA VL: DIQMTQSPSTLSASIGDTVRISCRASQSITGNWVAWYQQRPGKAPRLLIYRGAALLGGVPSRFRGSAAGTDFTLTIGNLQAEDFGTFYCQQYDTYPGTFGQGTKVEVKR")
0.461
>>> measuredresult("γ22κ18 (antibody, V domains shown) VH: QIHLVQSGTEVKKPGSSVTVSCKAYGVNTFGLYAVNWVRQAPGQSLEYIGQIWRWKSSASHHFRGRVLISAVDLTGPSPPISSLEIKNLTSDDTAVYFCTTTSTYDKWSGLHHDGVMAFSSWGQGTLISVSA VL: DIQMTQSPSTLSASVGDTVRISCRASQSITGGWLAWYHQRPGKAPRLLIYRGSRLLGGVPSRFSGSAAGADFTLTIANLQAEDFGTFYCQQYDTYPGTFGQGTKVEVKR")
8.23

Can you look up the measured neutralization IC50 of γ59κ61 (antibody, V domains shown) VH: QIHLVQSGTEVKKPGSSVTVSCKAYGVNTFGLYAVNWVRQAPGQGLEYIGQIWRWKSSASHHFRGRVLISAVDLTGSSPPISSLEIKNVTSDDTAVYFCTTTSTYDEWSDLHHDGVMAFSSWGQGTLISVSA VL: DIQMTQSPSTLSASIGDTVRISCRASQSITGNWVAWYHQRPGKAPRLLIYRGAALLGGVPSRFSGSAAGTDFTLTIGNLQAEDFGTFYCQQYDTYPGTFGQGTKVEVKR for me?
4.33

How about γ15κ61 (antibody, V domains shown) VH: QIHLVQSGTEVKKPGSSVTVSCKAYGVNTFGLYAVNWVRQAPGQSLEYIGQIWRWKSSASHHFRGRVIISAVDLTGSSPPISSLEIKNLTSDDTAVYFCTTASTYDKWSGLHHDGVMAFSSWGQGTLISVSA VL: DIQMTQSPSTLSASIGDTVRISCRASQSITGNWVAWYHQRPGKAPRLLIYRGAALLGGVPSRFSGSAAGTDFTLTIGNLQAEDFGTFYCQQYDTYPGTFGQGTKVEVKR ?
3.44

Now consider 8ANC3044 (antibody, V domains shown) VH: QIHLVQSGTEVRKPGSSVTVSCKAYGVNTFGLYAVNWVRQAPGQSLEYIGQIWRWKSSASHHFRGRVLISAVDLTGSSPPISSLEIKNLTSDDTAVYFCTTTSTYDKWSGLHHDGVMAFSSWGQGTLISVSA VL: DIQMTQSPSTLSASIGDTVRISCRASQSITGNWVAWYQQRPGKAPRLLIYRGAALLGGVPSRFSGSAAGTDFTLTIGNLQTEDFGTFYCQQYDTYPGTFGQGTKVEVKR .
0.747
